target: HDAC3-SMRT complex (Homo sapiens); assay: Fluorescent HDAC assay with purified HDAC3-SMRT complex; settings: Boc-(Ac)Lys-AMC substrate
Sequence (O15379 whole entry): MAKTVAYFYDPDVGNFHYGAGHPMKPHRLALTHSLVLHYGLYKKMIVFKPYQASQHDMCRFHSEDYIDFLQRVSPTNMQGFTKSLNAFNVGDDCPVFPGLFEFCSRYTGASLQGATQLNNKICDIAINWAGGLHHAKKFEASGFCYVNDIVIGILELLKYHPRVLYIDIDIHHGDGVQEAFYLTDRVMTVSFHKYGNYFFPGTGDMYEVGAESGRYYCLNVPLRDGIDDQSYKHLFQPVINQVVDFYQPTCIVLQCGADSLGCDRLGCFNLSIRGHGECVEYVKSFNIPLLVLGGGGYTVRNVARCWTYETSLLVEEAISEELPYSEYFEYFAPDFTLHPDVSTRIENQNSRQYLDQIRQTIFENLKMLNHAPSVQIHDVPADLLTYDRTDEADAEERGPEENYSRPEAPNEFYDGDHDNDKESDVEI
Sequence (Q9Y618 389-480 partner limits assumed): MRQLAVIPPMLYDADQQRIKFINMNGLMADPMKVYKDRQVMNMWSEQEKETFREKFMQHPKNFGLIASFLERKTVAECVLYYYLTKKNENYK
Endpoint label: pIC50
// pIC50 here means minus log10 of the molar concentration (mol/L)

Measured pIC50 of `CC(=O)N[C@H](C(=O)N1C[C@H](O)C[C@H]1C(=O)NCc1ccc(-c2scnc2C)cc1OCCCCCCCCCCCC(=O)Nc1ccc(C(=O)Nc2ccccc2N)cc1)C(C)(C)C` : 5.42

###

molecular target: HDAC1-CoREST-LSD1 complex (Homo sapiens, UniProt Q13547); experiment: Fluorescent HDAC assay with purified HDAC1-CoREST-LSD1 complex; conditions: Boc-(Ac)Lys-AMC substrate
Sequence (Q13547 whole entry, other chains not shown): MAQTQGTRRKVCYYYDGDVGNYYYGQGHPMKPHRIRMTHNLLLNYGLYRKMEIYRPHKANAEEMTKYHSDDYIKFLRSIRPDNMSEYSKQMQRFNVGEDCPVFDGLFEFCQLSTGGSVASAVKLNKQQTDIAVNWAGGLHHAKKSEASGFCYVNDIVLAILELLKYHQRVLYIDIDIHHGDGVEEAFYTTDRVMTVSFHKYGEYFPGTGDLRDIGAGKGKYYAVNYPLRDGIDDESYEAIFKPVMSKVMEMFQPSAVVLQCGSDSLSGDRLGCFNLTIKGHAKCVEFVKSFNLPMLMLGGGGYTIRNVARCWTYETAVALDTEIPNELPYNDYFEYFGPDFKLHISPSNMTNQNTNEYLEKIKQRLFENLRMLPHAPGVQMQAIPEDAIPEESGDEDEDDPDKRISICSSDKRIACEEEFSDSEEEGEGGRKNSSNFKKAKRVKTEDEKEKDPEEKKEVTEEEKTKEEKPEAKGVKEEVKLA
Sequence (Q9UKL0 86-485 partner limits assumed, other chains not shown): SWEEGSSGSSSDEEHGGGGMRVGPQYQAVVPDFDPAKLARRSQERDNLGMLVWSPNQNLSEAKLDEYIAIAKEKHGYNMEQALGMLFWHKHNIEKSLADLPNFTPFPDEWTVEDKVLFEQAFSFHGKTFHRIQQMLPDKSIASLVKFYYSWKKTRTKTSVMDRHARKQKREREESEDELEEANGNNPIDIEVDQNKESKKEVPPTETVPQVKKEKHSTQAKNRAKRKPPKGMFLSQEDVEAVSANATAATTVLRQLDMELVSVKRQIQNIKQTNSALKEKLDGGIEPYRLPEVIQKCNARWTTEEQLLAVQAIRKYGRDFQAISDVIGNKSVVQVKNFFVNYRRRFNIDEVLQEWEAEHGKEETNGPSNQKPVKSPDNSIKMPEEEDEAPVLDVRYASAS
Endpoint label: IC50 (nM)
Unit nM implied. Number only.

Short answer for CC(=O)N[C@H](C(=O)N1C[C@H](O)C[C@H]1C(=O)NCc1ccc(-c2scnc2C)cc1OCCCCCCCCCCCC(=O)Nc1ccc(C(=O)Nc2ccccc2N)cc1)C(C)(C)C [Compound 21] : IC50 was 1810
